Tested on: 885724-159-R-J1-PDC spheroids viability;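 further: spheroids exposed to drugs for seven days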
experimental.details: Anticancer human tumor 885724-159-R-J1-PDC patient-derived pancreatic adenocarcinoma cell line growth inhibition [TAK]
experimental.context: curve of first compound; second compound 30 µM; spheroids with HUVEC and MSC
attribute.measured: IC50

**Q:** What does the data say about its IC50? Entry: CC(C)CC(NC(=O)C(Cc1ccccc1)NC(=O)c1cnccn1)B(O)O (configuration not stated) + CC(C)NCC(C(=O)N1CCN(c2ncnc3c2C(C)CC3O)CC1)c1ccc(Cl)cc1
**A:** < 0.0316 nM

**Q:** Follow-up entry: COc1c(OCCCN2CCOCC2)ccc2c3n(c(=NC(=O)c4cnc(N)nc4)nc12)CCN3 + CC(C)NCC(C(=O)N1CCN(c2ncnc3c2C(C)CC3O)CC1)c1ccc(Cl)cc1
**A:** < 3.16 nM

**Q:** Follow-up entry: CCCS(=O)(=O)Nc1ccc(F)c(C(=O)c2c[nH]c3ncc(-c4ccc(Cl)cc4)cc23)c1F + CC(C)NCC(C(=O)N1CCN(c2ncnc3c2C(C)CC3O)CC1)c1ccc(Cl)cc1
**A:** < 316 nM

**Q:** Follow-up entry: Cn1cnc2c(F)c(Nc3ccc(Br)cc3Cl)c(C(=O)NOCCO)cc21 + CC(C)NCC(C(=O)N1CCN(c2ncnc3c2C(C)CC3O)CC1)c1ccc(Cl)cc1
**A:** < 9.49 nM

**Q:** Follow-up entry: CC(C)(C)c1nc(-c2cccc(NS(=O)(=O)c3c(F)cccc3F)c2F)c(-c2ccnc(N)n2)s1 + CC(C)NCC(C(=O)N1CCN(c2ncnc3c2C(C)CC3O)CC1)c1ccc(Cl)cc1
**A:** < 31.6 nM

**Q:** Follow-up entry: COC1CC2CCC(C)C(O)(O2)C(=O)C(=O)N2CCCCC2C(=O)OC(C(C)CC2CCC(OCCO)C(OC)C2)CC(=O)C(C)C=C(C)C(O)C(OC)C(=O)C(C)CC(C)C=CC=CC=C1C (configuration not stated) + CC(C)NCC(C(=O)N1CCN(c2ncnc3c2C(C)CC3O)CC1)c1ccc(Cl)cc1
**A:** < 0.316 nM

**Q:** Follow-up entry: CC(C)n1nc(-c2ccc3oc(N)nc3c2)c2c(N)ncnc21 + CC(C)NCC(C(=O)N1CCN(c2ncnc3c2C(C)CC3O)CC1)c1ccc(Cl)cc1
**A:** < 0.316 nM
